Attribute: LC50
Tested on: NCI-H23
Experiment: Cytotoxicity against human NCI-H23 cells after 48 hrs by SRB assay
Type: functional
Details: NCI-H23, 48 h
Value expressed in µM; do not type the unit.

// query Recorded LC50 of CC(C)Sc1cc2c(c3nsnc13)C(=O)c1ccccc1C2=O , please.
// result 8.48

// query What LC50 value was documented for this compound, O=C1c2ccccc2C(=O)c2c1cc(Sc1cccc(Cl)c1)c1nsnc21 ?
// result 22.8

--- query ---
// query Could you tell me which LC50 is on file for O=C1c2ccccc2C(=O)c2c1cc(Sc1ccc(F)cc1F)c1nsnc21 ?
// result 43.1
